Molecular target: SIRT1 (Homo sapiens)
Sequence (Q96EB6 1-747): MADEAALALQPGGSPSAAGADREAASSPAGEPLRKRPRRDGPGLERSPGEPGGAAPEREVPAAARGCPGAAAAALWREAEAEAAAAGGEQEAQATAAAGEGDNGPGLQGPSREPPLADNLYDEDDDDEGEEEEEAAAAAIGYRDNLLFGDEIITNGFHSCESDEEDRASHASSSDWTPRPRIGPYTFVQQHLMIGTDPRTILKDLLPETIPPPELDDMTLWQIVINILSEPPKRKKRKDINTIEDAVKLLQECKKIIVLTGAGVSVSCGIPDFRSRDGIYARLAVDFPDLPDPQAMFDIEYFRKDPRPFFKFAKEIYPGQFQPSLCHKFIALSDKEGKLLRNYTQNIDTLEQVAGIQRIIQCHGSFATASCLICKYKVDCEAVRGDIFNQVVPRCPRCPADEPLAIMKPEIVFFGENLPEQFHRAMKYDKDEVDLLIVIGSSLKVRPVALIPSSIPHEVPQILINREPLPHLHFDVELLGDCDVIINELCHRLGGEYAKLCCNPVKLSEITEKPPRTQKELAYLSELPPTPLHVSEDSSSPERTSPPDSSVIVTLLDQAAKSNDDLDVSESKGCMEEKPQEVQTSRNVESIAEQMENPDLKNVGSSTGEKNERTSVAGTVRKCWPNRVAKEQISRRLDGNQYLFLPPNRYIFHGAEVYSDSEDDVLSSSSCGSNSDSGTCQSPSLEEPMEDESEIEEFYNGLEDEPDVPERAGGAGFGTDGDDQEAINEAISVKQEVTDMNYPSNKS
Test: Mass spectrometry based SIRT1 deacetylase activation assay
Format: biochemical
Settings: 0.5 μM peptide substrate, 120 μM βNAD+, 10 nM SIRT1, 25 min, 25° C.
Experimental Endpoint: EC1.5 μM

Completed entries (count: 6):
> print(dat)
                                   compound        measurement
1  O=C(Nc1cccc2c(=O)cc(-c3cccc(N4CCOCC4)c3)oc12)c1cnccn1 [Compound 214]  B (EC1.5 1-25 μM)
2  O=C(Nc1cccc2c(=O)cc(-c3ccccc3Cl)oc12)c1cccc(CN2CCCC2)n1 [Compound 327]      A (EC1-5<1.0)
3  O=C(Nc1cccc2c(=O)cc(-c3ccc(OC(F)(F)F)cc3)oc12)c1cnccn1 [Compound 233]    C (EC1.5>25 μM)
4  O=C(Nc1cccnc1)c1cccc2c(=O)cc(-c3cccc(C(F)(F)F)c3)oc12 [Compound 224]    C (EC1.5>25 μM)
5  Cc1cnc(NC(=O)c2cccc3c(=O)cc(-c4ccccc4Cl)oc23)s1 [Compound 270]    C (EC1.5>25 μM)
6  O=C(Nc1cccc2c(=O)cc(-c3ccccc3F)oc12)c1cnccn1 [Compound 278]    C (EC1.5>25 μM)

Task: Returns the measured EC1.5 μM for the input compound. Input: O=C(Nc1cccc2c(=O)cc(-c3ccccc3C(F)(F)F)oc12)c1cccc(N2CCOCC2)n1 [Compound 322]
Result: A (EC1-5<1.0)

Task: Returns the measured EC1.5 μM for the input compound. Input: O=C(Nc1cccc2c(=O)cc(-c3cc(F)ccc3F)oc12)c1cscn1 [Compound 293]
Result: C (EC1.5>25 μM)

Task: Returns the measured EC1.5 μM for the input compound. Input: Cn1ccnc1C(=O)Nc1cccc2c(=O)cc(-c3ccccc3C(F)(F)F)oc12 [Compound 250]
Result: A (EC1-5<1.0)

Task: Returns the measured EC1.5 μM for the input compound. Input: Cn1cnc(C(=O)Nc2cccc3c(=O)cc(-c4ccccc4C(F)(F)F)oc23)c1 [Compound 256]
Result: A (EC1-5<1.0)

Task: Returns the measured EC1.5 μM for the input compound. Input: O=C(Nc1cccc2c(=O)cc(-c3c(Cl)cccc3Cl)oc12)c1cnccn1 [Compound 302]
Result: B (EC1.5 1-25 μM)

Task: Returns the measured EC1.5 μM for the input compound. Input: Cc1ccccc1-c1cc(=O)c2cccc(NC(=O)c3cnccn3)c2o1 [Compound 273]
Result: A (EC1-5<1.0)

Task: Returns the measured EC1.5 μM for the input compound. Input: O=C(Nc1cccc2c(=O)cc(-c3ccccc3Cl)oc12)c1cncc(N2CCOCC2)n1 [Compound 319]
Result: A (EC1-5<1.0)

Task: Returns the measured EC1.5 μM for the input compound. Input: O=C(Nc1cccc2c(=O)cc(-c3ccccc3Cl)oc12)c1cccc(CN2CCOCC2)c1 [Compound 330]
Result: B (EC1.5 1-25 μM)

Task: Returns the measured EC1.5 μM for the input compound. Input: O=C(Nc1cccc2c(=O)cc(-c3cccc(C(F)(F)F)c3)oc12)c1ccccn1 [Compound 225]
Result: C (EC1.5>25 μM)

Task: Returns the measured EC1.5 μM for the input compound. Input: O=C(Nc1cccc2c(=O)cc(-c3ccccc3Cl)oc12)c1cccnc1OCC(O)CO (centres unmarked) [Compound 332]
Result: B (EC1.5 1-25 μM)

Task: Returns the measured EC1.5 μM for the input compound. Input: O=C(Nc1ccccn1)c1cccc2c(=O)cc(-c3cccc(N4CCOCC4)c3)oc12 [Compound 209]
Result: C (EC1.5>25 μM)

---

Molecular target: SIRT1 (Homo sapiens)
Experiment: Mass spectrometry based SIRT1 deacetylase activation assay
Format: biochemical
Settings: 0.5 μM peptide substrate, 120 μM βNAD+, 10 nM SIRT1, 25 min, 25° C.
Experimental Endpoint: EC1.5 μM

> print(dat)
                                   compound        measurement
1  O=C(Nc1cccc2c(=O)cc(-c3ccccc3C(F)(F)F)oc12)c1cccnc1OCC(O)CO (stereo not shown)  B (EC1.5 1-25 μM)
2  O=C(Nc1cccc2c(=O)cc(-c3ccccc3C(F)(F)F)oc12)c1cccnc1  B (EC1.5 1-25 μM)

---

Target: UniProtKB Q96EB6
Sequence (Q96EB6 1-747): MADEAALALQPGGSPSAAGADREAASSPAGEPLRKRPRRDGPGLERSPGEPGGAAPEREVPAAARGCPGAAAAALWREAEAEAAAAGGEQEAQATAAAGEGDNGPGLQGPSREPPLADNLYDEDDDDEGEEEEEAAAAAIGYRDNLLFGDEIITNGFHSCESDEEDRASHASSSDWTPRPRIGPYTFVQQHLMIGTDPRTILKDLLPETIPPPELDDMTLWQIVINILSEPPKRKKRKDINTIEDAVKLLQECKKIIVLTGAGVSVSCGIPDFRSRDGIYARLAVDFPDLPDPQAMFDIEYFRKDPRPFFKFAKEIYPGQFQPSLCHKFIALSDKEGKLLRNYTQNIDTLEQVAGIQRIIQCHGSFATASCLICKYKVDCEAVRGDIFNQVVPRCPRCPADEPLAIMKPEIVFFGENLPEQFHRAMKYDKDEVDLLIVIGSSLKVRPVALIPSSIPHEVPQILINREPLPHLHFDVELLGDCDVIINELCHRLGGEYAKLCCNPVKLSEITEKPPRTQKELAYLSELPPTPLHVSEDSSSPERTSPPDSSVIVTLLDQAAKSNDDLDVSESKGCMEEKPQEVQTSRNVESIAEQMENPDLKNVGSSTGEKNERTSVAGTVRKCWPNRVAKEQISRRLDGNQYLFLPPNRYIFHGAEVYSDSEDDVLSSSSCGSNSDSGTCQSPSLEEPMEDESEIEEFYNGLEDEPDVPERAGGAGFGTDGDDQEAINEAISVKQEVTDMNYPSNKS
Experiment: Mass spectrometry based SIRT1 deacetylase activation assay
Format: biochemical
Conditions: 25 min, mass spectrometry assay, read-out: % Fold Act. (percent maximum fold activation)
Experimental Endpoint: Emax

Completed entries (count: 5):
> print(dat)
                                   compound  measurement
1  O=C(Nc1cccc2c(=O)cc(-c3ccccc3Cl)oc12)c1cscn1       > 200%
2  O=C(Nc1cccc2c(=O)cc(-c3ccccc3C(F)(F)F)oc12)c1cccc(OCC(O)CO)n1 (stereo not drawn)       > 200%
3  O=C(Nc1cccc2c(=O)cc(-c3ccccc3Cl)oc12)c1cccc(N2CCCC2)c1       > 200%
4  O=C(Nc1cccc2c(=O)cc(-c3ccccc3F)oc12)c1cnccn1       < 200%
5  Cc1ccccc1-c1cc(=O)c2cccc(NC(=O)c3cnccn3)c2o1       > 200%

Task: Returns the measured Emax for the input compound. Input: O=C(Nc1cccc2c(=O)cc(-c3ccccc3C(F)(F)F)oc12)c1cccc(N2CCOCC2)n1
Result: > 200%

Task: Returns the measured Emax for the input compound. Input: O=C(Nc1cccc2c(=O)cc(-c3ccccc3C(F)(F)F)oc12)c1cccc(CN2CCCC2)n1
Result: > 200%

Task: Returns the measured Emax for the input compound. Input: O=C(Nc1cccnc1)c1cccc2c(=O)cc(-c3cccc(C(F)(F)F)c3)oc12
Result: < 200%

Task: Returns the measured Emax for the input compound. Input: Cn1ccnc1C(=O)Nc1cccc2c(=O)cc(-c3ccccc3C(F)(F)F)oc12
Result: > 200%

Task: Returns the measured Emax for the input compound. Input: O=C(Nc1cccc2c(=O)cc(-c3ccccc3Cl)oc12)c1cccc(CN2CCCC2)n1
Result: > 200%

Task: Returns the measured Emax for the input compound. Input: O=C(Nc1cccc2c(=O)cc(-c3c(Cl)cccc3Cl)oc12)c1cscn1
Result: > 200%

Task: Returns the measured Emax for the input compound. Input: Cc1cnc(NC(=O)c2cccc3c(=O)cc(-c4ccccc4OC(F)F)oc23)s1
Result: < 200%

Task: Returns the measured Emax for the input compound. Input: O=C(Nc1cccc2c(=O)cc(-c3ccccc3Cl)oc12)c1cnccn1
Result: > 200%

Task: Returns the measured Emax for the input compound. Input: Cc1cnc(NC(=O)c2cccc3c(=O)cc(-c4ccccn4)oc23)s1
Result: < 200%

Task: Returns the measured Emax for the input compound. Input: CS(=O)(=O)c1cccc(-c2cc(=O)c3cccc(NC(=O)c4ccccn4)c3o2)c1
Result: < 200%

Task: Returns the measured Emax for the input compound. Input: O=C(Nc1cccc2c(=O)cc(-c3cccc(F)c3Cl)oc12)c1cscn1
Result: < 200%

Task: Returns the measured Emax for the input compound. Input: O=C(Nc1cccc2c(=O)cc(-c3ccccc3C(F)(F)F)oc12)c1ccccn1
Result: > 200%

Task: Returns the measured Emax for the input compound. Input: O=C(Nc1ccccn1)c1cccc2c(=O)cc(-c3cccc(OC(F)(F)F)c3)oc12
Result: < 200%
